- assay_target: Extracellular calcium-sensing receptor (Rattus norvegicus) (UniProt P48442)
- Sequence (P48442 whole entry): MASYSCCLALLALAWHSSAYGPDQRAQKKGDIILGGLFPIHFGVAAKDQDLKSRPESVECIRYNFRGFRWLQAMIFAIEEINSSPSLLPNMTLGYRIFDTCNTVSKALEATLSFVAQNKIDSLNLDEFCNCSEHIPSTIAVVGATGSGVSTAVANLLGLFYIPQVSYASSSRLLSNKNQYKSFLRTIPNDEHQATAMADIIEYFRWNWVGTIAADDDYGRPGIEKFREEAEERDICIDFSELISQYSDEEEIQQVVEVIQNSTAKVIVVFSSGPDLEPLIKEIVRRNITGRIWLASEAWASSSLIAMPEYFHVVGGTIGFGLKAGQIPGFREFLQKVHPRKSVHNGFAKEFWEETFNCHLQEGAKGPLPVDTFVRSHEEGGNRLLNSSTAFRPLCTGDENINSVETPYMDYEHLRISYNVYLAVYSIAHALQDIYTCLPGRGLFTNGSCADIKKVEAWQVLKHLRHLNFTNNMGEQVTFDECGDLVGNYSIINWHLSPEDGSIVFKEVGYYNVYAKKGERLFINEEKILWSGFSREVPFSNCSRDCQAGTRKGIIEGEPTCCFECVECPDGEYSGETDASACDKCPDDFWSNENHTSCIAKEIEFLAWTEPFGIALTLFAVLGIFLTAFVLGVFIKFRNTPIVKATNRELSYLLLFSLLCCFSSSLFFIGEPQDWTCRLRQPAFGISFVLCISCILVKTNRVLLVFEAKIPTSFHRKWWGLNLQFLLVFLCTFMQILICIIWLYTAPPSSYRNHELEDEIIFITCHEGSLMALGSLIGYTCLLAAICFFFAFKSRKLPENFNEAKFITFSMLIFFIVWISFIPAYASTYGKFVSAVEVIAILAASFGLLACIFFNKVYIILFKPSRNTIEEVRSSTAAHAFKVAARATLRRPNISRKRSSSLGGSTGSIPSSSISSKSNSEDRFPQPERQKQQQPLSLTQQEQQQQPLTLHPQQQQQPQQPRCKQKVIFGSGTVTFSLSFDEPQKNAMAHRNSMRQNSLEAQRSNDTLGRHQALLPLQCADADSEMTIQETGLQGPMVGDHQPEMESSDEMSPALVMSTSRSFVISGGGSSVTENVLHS
- protocol_summary: Agonist activity at rat brain CaSR expressed in CHO cells assessed as inositol phosphate production at 3 uM in presence of 3 mM extracellular Ca2+ by IP-one assay
- Format: functional, cell-based
observation_type: Activity
Phrase the answer as number then unit, nothing more needed.

[
  {
    "molecule": "CC(NCc1cc2ccccc2[nH]1)c1ccc(F)c2ccccc12 (racemic)",
    "Activity": "89%"
  },
  {
    "molecule": "C[C@@H](NCc1cc2ccccc2[nH]1)c1ccc(F)cc1",
    "Activity": "30%"
  },
  {
    "molecule": "C[C@@H](NCc1cc2cccc(-c3ccccc3)c2[nH]1)c1cccc2ccccc12",
    "Activity": "79%"
  }
]

I'm hoping you can list Activity for every molecule here, please.
1. C[C@@H](NCc1cc2c(O)cccc2[nH]1)c1cccc2ccccc12
2. CC(NCc1cc2ccccc2[nH]1)c1ccccc1O (racemic)
3. C[C@@H](NCc1[nH]c2ccccc2c1Br)c1cccc2ccccc12

*A*
1: 88%; 2: 1%; 3: 21%
